Please respond with reported photoluminescence quantum yield for every item in the list.
assay: photoluminescence quantum yield (fraction); solvent given as SMILES; conditions: in Cc1ccccc1
Reply briefly: the number, and no unit.

What the record says about "c1ccc(-c2nnc(-c3cc(-n4c5ccccc5c5ccccc54)c(-n4c5ccccc5c5ccccc54)cc3-c3nnc(-c4ccccc4)o3)o2)cc1" : photoluminescence quantum yield is 0.383

The recorded photoluminescence quantum yield for "N#C/C(=C\c1ccc(C#N)cc1)c1nc(-c2ccccc2)cs1" is 0.098

So for "Oc1ccc2ncccc2c1" , the logged photoluminescence quantum yield turned out to be 0.008

GET /value?item= "CCCCOc1ccc(/C=C/C=C/C=C/c2ccc([N+](=O)[O-])cc2)cc1" &field=photoluminescence quantum yield returns 0.53

Sure, the documented photoluminescence quantum yield for "COc1ccc(N(c2ccccc2)c2ccccc2)cc1" is 0.03

For reference, reported photoluminescence quantum yield for CC1(C)c2ccccc2N(c2ccc3c(c2)Oc2ccccc2P3(=O)c2ccccc2)c2ccccc21 (centres undefined) stands at 0.37

Record "CN(C)c1ccc(/C=C/C=C/c2ccc([N+](=O)[O-])c(O)c2)cc1" , field photoluminescence quantum yield: 0.11

Item: "CCCCCCCCC1(CCCCCCCC)c2cc(C=O)ccc2-c2ccc(/C=C/c3ccc(N(c4ccccc4)c4ccccc4)cc3)cc21" | photoluminescence quantum yield: 0.58

Given item "O=C(c1ccc(-n2c3ccccc3c3ccccc32)cc1)c1ccc(-n2c3ccccc3c3ccccc32)cc1" , the value recorded as its photoluminescence quantum yield is 0.21
